# System: 7G8
# assay.protocol: qHTS profiling for inhibitors of Plasmodium falciparum proliferation (AID 504749); further: nearly all actives have a fitted effect of over 60% in size
# condition.set: P. falciparum in erythrocytes, SYBR Green DNA, 72 h; series mostly up to 28.7 µM
Results filed as inconclusive are left out. Activity calls are given as the source filed them. The call rests on the fitted dose curve; in most records, active means well fitted inhibition curve with a large enough effect; inconclusive means small, poorly fitted or top-dose-only effect; inactive means flat fitted curve, though single readings scatter.
Labels: active, inactive

[
  {
    "compound": "NCC[C@H](O)C(=O)N[C@@H]1C[C@H](N)[C@@H](O[C@H]2O[C@H](CN)CC[C@H]2N)[C@H](O)[C@H]1O[C@H]1O[C@H](CO)[C@@H](O)[C@H](N)[C@H]1O",
    "experimental.system": "7G8",
    "group.label": "inactive"
  },
  {
    "compound": "Nc1ncnc2c1ncn2CCOCP(=O)(O)O",
    "experimental.system": "7G8",
    "group.label": "inactive"
  },
  {
    "compound": "COc1cc(NCCCC(C)N)c2ncccc2c1 (stereo unspecified)",
    "experimental.system": "7G8",
    "group.label": "active"
  },
  {
    "compound": "CC(C)O",
    "experimental.system": "7G8",
    "group.label": "inactive"
  },
  {
    "compound": "C=CCOc1ccc(CC(=O)O)cc1Cl",
    "experimental.system": "7G8",
    "group.label": "inactive"
  },
  {
    "compound": "CC(=O)Nc1ccc(OC(=O)c2ccccc2O)cc1",
    "experimental.system": "7G8",
    "group.label": "inactive"
  }
]

---

# assay.protocol: Cellular Toxicity (caspase-3) Hek293 (AID 664);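 further: cells exposed to compound for 16 h at 37 °C before readout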
# condition.set: HEK293 caspase-3 activation, DMSO = 0%, 100 µM tamoxifen = 100%; at 92.2 µM (top of the series)
Records with an inconclusive call do not appear.
Below, each of the compounds is paired with its reported caspase-3 activation value.

[
  {
    "compound": "OCc1ccccc1",
    "caspase-3 activation [%]": -0.432
  },
  {
    "compound": "C=C1C(CCl)(CCl)C2(Cl)C(Cl)C(Cl)C1(Cl)C2(Cl)Cl (stereo not drawn)",
    "caspase-3 activation [%]": 252
  },
  {
    "compound": "c1ccc2ccccc2c1",
    "caspase-3 activation [%]": -0.432
  },
  {
    "compound": "OB(O)O",
    "caspase-3 activation [%]": -1.81
  },
  {
    "compound": "CC(C)(C)CC(C)(C)c1ccc(OCCO)cc1",
    "caspase-3 activation [%]": 5.17
  },
  {
    "compound": "CCOC(C)OCC",
    "caspase-3 activation [%]": 0.677
  },
  {
    "compound": "O=c1n(CC2CO2)c(=O)n(CC2CO2)c(=O)n1CC1CO1 (stereo not drawn)",
    "caspase-3 activation [%]": 3.19
  },
  {
    "compound": "C[C@H](CCC(=O)O)[C@H]1CC[C@H]2[C@@H]3CC[C@@H]4C[C@H](O)CC[C@]4(C)[C@H]3C[C@H](O)[C@]12C",
    "caspase-3 activation [%]": -1.48
  }
]

---

# System: CP194
# assay.protocol: qHTS profiling for inhibitors of Plasmodium falciparum proliferation (AID 504749); further: nearly all actives have a fitted effect of over 60% in size
# condition.set: P. falciparum in erythrocytes, SYBR Green DNA, 72 h; series mostly up to 28.7 µM
Records with an inconclusive call do not appear. The source made the active and inactive calls. Calls come from the whole dose curve; as a rule, active = well fitted inhibition curve with a large enough effect; inconclusive = small, poorly fitted or top-dose-only effect; inactive = flat fitted curve, though single readings scatter.
Labels: active, inactive

[
  {
    "molecule": "COc1ccc(C(=O)c2ccc(C)cc2)c(O)c1",
    "experimental.system": "CP194",
    "group.label": "inactive"
  },
  {
    "molecule": "CCCCO",
    "experimental.system": "CP194",
    "group.label": "inactive"
  },
  {
    "molecule": "CCN(CC)CCOc1ccc2nc(N(C)C)sc2c1",
    "experimental.system": "CP194",
    "group.label": "inactive"
  },
  {
    "molecule": "CCCCC/C=C\\C/C=C\\C/C=C\\CCCCC(=O)O",
    "experimental.system": "CP194",
    "group.label": "inactive"
  },
  {
    "molecule": "CC1CCCCN1CCCOC(=O)c1ccccc1 (stereo unspecified)",
    "experimental.system": "CP194",
    "group.label": "inactive"
  },
  {
    "molecule": "COc1cc(NCCCC(C)N)c2ncccc2c1 (stereo unspecified)",
    "experimental.system": "CP194",
    "group.label": "active"
  },
  {
    "molecule": "Cc1cc2nc3c(=O)[nH]c(=O)nc-3n(C[C@H](O)[C@H](O)[C@H](O)COP(=O)(O)OP(=O)(O)OC[C@H]3O[C@@H](n4cnc5c(N)ncnc54)[C@H](O)[C@@H]3O)c2cc1C",
    "experimental.system": "CP194",
    "group.label": "inactive"
  },
  {
    "molecule": "O=C(OCc1ccccc1)c1ccc(O)cc1",
    "experimental.system": "CP194",
    "group.label": "inactive"
  },
  {
    "molecule": "CC(C)CCC[C@@H](C)[C@H]1CC[C@H]2[C@@H]3CC[C@@H]4C[C@H](O)CC[C@]4(C)[C@H]3CC[C@]12C",
    "experimental.system": "CP194",
    "group.label": "inactive"
  },
  {
    "molecule": "NC(=O)C1c2ccccc2CCc2ccccc21",
    "experimental.system": "CP194",
    "group.label": "inactive"
  },
  {
    "molecule": "O=C(O)c1ccc(NC(=O)[C@H](Cc2ccc(O)cc2)NC(=O)c2ccccc2)cc1",
    "experimental.system": "CP194",
    "group.label": "inactive"
  },
  {
    "molecule": "CCSc1ccc2c(c1)N(CCCN1CCN(C)CC1)c1ccccc1S2",
    "experimental.system": "CP194",
    "group.label": "inactive"
  },
  {
    "molecule": "CCCCCc1ccc(C)cc1O",
    "experimental.system": "CP194",
    "group.label": "inactive"
  },
  {
    "molecule": "c1ccc(-n2cnnn2)cc1",
    "experimental.system": "CP194",
    "group.label": "inactive"
  },
  {
    "molecule": "Nc1ncnc2c1ncn2[C@H]1CC[C@@H](CO)O1",
    "experimental.system": "CP194",
    "group.label": "inactive"
  },
  {
    "molecule": "NCCO/C=C/[C@H](N)C(=O)O",
    "experimental.system": "CP194",
    "group.label": "inactive"
  },
  {
    "molecule": "CCOc1ccc(S(=O)(=O)O)c2cccnc12",
    "experimental.system": "CP194",
    "group.label": "inactive"
  },
  {
    "molecule": "Nc1ncnc2c1ncn2CCOCP(=O)(O)O",
    "experimental.system": "CP194",
    "group.label": "inactive"
  },
  {
    "molecule": "CC(O)CN(C)C (stereo unspecified)",
    "experimental.system": "CP194",
    "group.label": "inactive"
  },
  {
    "molecule": "CC1(C)S[C@@H]2[C@H](NC(=O)C3(N)CCCCC3)C(=O)N2[C@H]1C(=O)O",
    "experimental.system": "CP194",
    "group.label": "inactive"
  },
  {
    "molecule": "CC(=O)NCCCS(=O)(=O)O",
    "experimental.system": "CP194",
    "group.label": "inactive"
  },
  {
    "molecule": "O=C(NCCNCC(O)COc1ccc(O)cc1)N1CCOCC1 (stereo unspecified)",
    "experimental.system": "CP194",
    "group.label": "inactive"
  },
  {
    "molecule": "C=Cc1ccc(S(=O)(=O)O)cc1",
    "experimental.system": "CP194",
    "group.label": "inactive"
  },
  {
    "molecule": "C[Se]CC[C@H](N)C(=O)O",
    "experimental.system": "CP194",
    "group.label": "inactive"
  },
  {
    "molecule": "CC(C)NCC(O)COc1ccccc1-n1cccc1 (stereo unspecified)",
    "experimental.system": "CP194",
    "group.label": "inactive"
  },
  {
    "molecule": "CCCCC",
    "experimental.system": "CP194",
    "group.label": "inactive"
  }
]
